- System: NCI-H3122
- testDescription: relative viability (nuclei count vs DMSO), 5 days (fraction); higher = more cells survive
- condition: first compound 0.6325 µM
measuredParameter: relative viability

Q: I have this molecule here, Cc1csc(=NC2CCCCC2)n1/N=C/c1ccc(O)c(O)c1O [MIM1] + CC(=O)c1c(C)c2cnc(Nc3ccc(N4CCNCC4)cn3)nc2n(C2CCCC2)c1=O [Palbociclib] (partner 0.5 µM) , and I need its recorded relative viability.
A: 0.195

Q: Okay, and CN1CCN(CCOc2cc(OC3CCOCC3)c3c(Nc4c(Cl)ccc5c4OCO5)ncnc3c2)CC1 [Saracatinib] + C[C@]1(O)C[C@@H](c2nc(-c3ccc4ccc(-c5ccccc5)nc4c3)c3c(N)nccn32)C1 [Linsitinib] (partner 1 µM) ?
A: 0.842

Q: Okay, and Cc1csc(=NC2CCCCC2)n1/N=C/c1ccc(O)c(O)c1O [MIM1] + CC(=O)Nc1cccc(-n2c(=O)n(C3CC3)c(=O)c3c(Nc4ccc(I)cc4F)n(C)c(=O)c(C)c32)c1 [Trametinib] (partner 0.02 µM) ?
A: 0.244

Q: Okay, and CN1CCN(CCOc2cc(OC3CCOCC3)c3c(Nc4c(Cl)ccc5c4OCO5)ncnc3c2)CC1 [Saracatinib] + O=C(CCCCCCC(=O)Nc1ccccc1)NO [Vorinostat] (partner 1 µM) ?
A: 0.891

Q: Okay, and Cc1csc(=NC2CCCCC2)n1/N=C/c1ccc(O)c(O)c1O [MIM1] + O=C(CCCCCCC(=O)Nc1ccccc1)NO [Vorinostat] (partner 1 µM) ?
A: 0.894

Q: Okay, and Cc1csc(=NC2CCCCC2)n1/N=C/c1ccc(O)c(O)c1O [MIM1] + COc1cc2c(Oc3ccc(NC(=O)C4(C(=O)Nc5ccc(F)cc5)CC4)cc3F)ccnc2cc1OCCCN1CCOCC1 [Foretinib] (partner 0.25 µM) ?
A: 1.03

Q: Okay, and CN1CCN(CCOc2cc(OC3CCOCC3)c3c(Nc4c(Cl)ccc5c4OCO5)ncnc3c2)CC1 [Saracatinib] + CCNC(=O)c1noc(-c2cc(C(C)C)c(O)cc2O)c1-c1ccc(CN2CCOCC2)cc1 [Luminespib] (partner 0.01 µM) ?
A: 0.0549

Q: Okay, and Cc1csc(=NC2CCCCC2)n1/N=C/c1ccc(O)c(O)c1O [MIM1] + C[C@@H](Oc1cc(-c2cnn(C3CCNCC3)c2)cnc1N)c1c(Cl)ccc(F)c1Cl [Crizotinib] (partner 1 µM) ?
A: 0.251

Q: Okay, and Cc1csc(=NC2CCCCC2)n1/N=C/c1ccc(O)c(O)c1O [MIM1] + Cc1nc(NC(=O)N2CCC[C@H]2C(N)=O)sc1-c1ccnc(C(C)(C)C(F)(F)F)c1 [Alpelisib] (partner 2 µM) ?
A: 0.833

* * *

Please respond with reported relative viability for every item in the list.
- System: NCI-H2126
- testDescription: relative viability (nuclei count vs DMSO), 5 days (fraction); higher = more cells survive
- condition: first compound 0.6325 µM
Lab note: jot the number down without any unit.

Q: Form entry - test system: NCI-H2126; read-out: relative viability; compound: CN1CCN(CCOc2cc(OC3CCOCC3)c3c(Nc4c(Cl)ccc5c4OCO5)ncnc3c2)CC1 [Saracatinib] + CC(C)C[C@H](NC(=O)[C@H](Cc1ccccc1)NC(=O)c1cnccn1)B(O)O [Bortezomib] (partner 0.002 µM)
A: 1.11

Q: Okay, and Cc1csc(=NC2CCCCC2)n1/N=C/c1ccc(O)c(O)c1O [MIM1] + C[C@]1(O)C[C@@H](c2nc(-c3ccc4ccc(-c5ccccc5)nc4c3)c3c(N)nccn32)C1 [Linsitinib] (partner 1 µM) ?
A: 0.695

Q: Okay, and CN1CCN(CCOc2cc(OC3CCOCC3)c3c(Nc4c(Cl)ccc5c4OCO5)ncnc3c2)CC1 [Saracatinib] + Cc1nc(Nc2ncc(C(=O)Nc3c(C)cccc3Cl)s2)cc(N2CCN(CCO)CC2)n1 [Dasatinib] (partner 0.075 µM) ?
A: 0.532

Q: Okay, and Cc1csc(=NC2CCCCC2)n1/N=C/c1ccc(O)c(O)c1O [MIM1] + CC(C)C[C@H](NC(=O)[C@H](Cc1ccccc1)NC(=O)c1cnccn1)B(O)O [Bortezomib] (partner 0.002 µM) ?
A: 1.1

* * *

- Tested on: ABC-1
- testDescription: relative viability (nuclei count vs DMSO), 5 days (fraction); higher = more cells survive
- condition: first compound 0.1 µM
measuredParameter: relative viability

Q: I have this molecule here, Cc1cn(-c2cc(NC(=O)c3ccc(C)c(Nc4nccc(-c5cccnc5)n4)c3)cc(C(F)(F)F)c2)cn1 [Nilotinib] + COc1cc2c(Oc3ccc(NC(=O)C4(C(=O)Nc5ccc(F)cc5)CC4)cc3F)ccnc2cc1OCCCN1CCOCC1 [Foretinib] (partner 0.25 µM) , and I need its recorded relative viability.
A: 1.32

Q: Okay, and Cc1cn(-c2cc(NC(=O)c3ccc(C)c(Nc4nccc(-c5cccnc5)n4)c3)cc(C(F)(F)F)c2)cn1 [Nilotinib] + Nc1ncn([C@H]2C[C@H](O)[C@@H](CO)O2)c(=O)n1 [Decitabine] (partner 2 µM) ?
A: 0.96

Q: Okay, and Cc1cn(-c2cc(NC(=O)c3ccc(C)c(Nc4nccc(-c5cccnc5)n4)c3)cc(C(F)(F)F)c2)cn1 [Nilotinib] + CS(=O)(=O)N1CCN(Cc2cc3nc(-c4cccc5[nH]ncc45)nc(N4CCOCC4)c3s2)CC1 [Pictilisib] (partner 1 µM) ?
A: 0.346

Q: Okay, and Cc1cn(-c2cc(NC(=O)c3ccc(C)c(Nc4nccc(-c5cccnc5)n4)c3)cc(C(F)(F)F)c2)cn1 [Nilotinib] + Cc1cc(Nc2cc(N3CCN(C)CC3)nc(Sc3ccc(NC(=O)C4CC4)cc3)n2)n[nH]1 [Tozasertib] (partner 0.1 µM) ?
A: 0.237

Q: Okay, and Cc1cn(-c2cc(NC(=O)c3ccc(C)c(Nc4nccc(-c5cccnc5)n4)c3)cc(C(F)(F)F)c2)cn1 [Nilotinib] + CS(=O)(=O)CCNCc1ccc(-c2ccc3ncnc(Nc4ccc(OCc5cccc(F)c5)c(Cl)c4)c3c2)o1 [Lapatinib] (partner 2 µM) ?
A: 0.952

* * *

- Test system: NCI-H23
- testDescription: relative viability (nuclei count vs DMSO), 5 days (fraction); higher = more cells survive
- condition: first compound 0.002 µM
relative viability less than 0.5 is 1; relative viability greater than or equal to 0.5 is 0.

Q: Item CCNC(=O)c1noc(-c2cc(C(C)C)c(O)cc2O)c1-c1ccc(CN2CCOCC2)cc1 [Luminespib] + C[C@]1(O)C[C@@H](c2nc(-c3ccc4ccc(-c5ccccc5)nc4c3)c3c(N)nccn32)C1 [Linsitinib] (partner 1 µM) : relative viability beneath 0.5, strictly?
A: 0

Q: Okay, and CCNC(=O)c1noc(-c2cc(C(C)C)c(O)cc2O)c1-c1ccc(CN2CCOCC2)cc1 [Luminespib] + O=C(CCCCCCC(=O)Nc1ccccc1)NO [Vorinostat] (partner 1 µM) ?
A: 0

Q: Okay, and CCNC(=O)c1noc(-c2cc(C(C)C)c(O)cc2O)c1-c1ccc(CN2CCOCC2)cc1 [Luminespib] + O=C(c1cc(Cc2n[nH]c(=O)c3ccccc23)ccc1F)N1CCN(C(=O)C2CC2)CC1 [Olaparib] (partner 8 µM) ?
A: 1

Q: Okay, and CCNC(=O)c1noc(-c2cc(C(C)C)c(O)cc2O)c1-c1ccc(CN2CCOCC2)cc1 [Luminespib] + CS(=O)(=O)N1CCN(Cc2cc3nc(-c4cccc5[nH]ncc45)nc(N4CCOCC4)c3s2)CC1 [Pictilisib] (partner 1 µM) ?
A: 1

Q: Okay, and CCNC(=O)c1noc(-c2cc(C(C)C)c(O)cc2O)c1-c1ccc(CN2CCOCC2)cc1 [Luminespib] + COc1cc2c(Oc3ccc(NC(=O)C4(C(=O)Nc5ccc(F)cc5)CC4)cc3F)ccnc2cc1OCCCN1CCOCC1 [Foretinib] (partner 0.25 µM) ?
A: 0

* * *

- Test system: NCI-H1437
- testDescription: relative viability (nuclei count vs DMSO), 5 days (fraction); higher = more cells survive
- condition: first compound 0.2 µM
Please respond with reported relative viability for every item in the list.

Q: I have this compound here, CN1CCN(CCOc2cc(OC3CCOCC3)c3c(Nc4c(Cl)ccc5c4OCO5)ncnc3c2)CC1 [Saracatinib] + O=C(CCCCCCC(=O)Nc1ccccc1)NO [Vorinostat] (partner 1 µM) , and I need its recorded relative viability.
A: 0.995

Q: Okay, and CN1CCN(CCOc2cc(OC3CCOCC3)c3c(Nc4c(Cl)ccc5c4OCO5)ncnc3c2)CC1 [Saracatinib] + O=C(c1cc(Cc2n[nH]c(=O)c3ccccc23)ccc1F)N1CCN(C(=O)C2CC2)CC1 [Olaparib] (partner 8 µM) ?
A: 0.648

Q: Okay, and Cc1csc(=NC2CCCCC2)n1/N=C/c1ccc(O)c(O)c1O [MIM1] + CC(=O)Nc1cccc(-n2c(=O)n(C3CC3)c(=O)c3c(Nc4ccc(I)cc4F)n(C)c(=O)c(C)c32)c1 [Trametinib] (partner 0.02 µM) ?
A: 0.454

Q: Okay, and CCNC(=O)c1noc(-c2cc(C(C)C)c(O)cc2O)c1-c1ccc(CN2CCOCC2)cc1 [Luminespib] + CS(=O)(=O)N1CCN(Cc2cc3nc(-c4cccc5[nH]ncc45)nc(N4CCOCC4)c3s2)CC1 [Pictilisib] (partner 1 µM) ?
A: 0.0978

Q: Okay, and CN1CCN(CCOc2cc(OC3CCOCC3)c3c(Nc4c(Cl)ccc5c4OCO5)ncnc3c2)CC1 [Saracatinib] + Nc1nc2[nH]cc(CCc3ccc(C(=O)N[C@@H](CCC(=O)O)C(=O)O)cc3)c2c(=O)[nH]1 [Pemetrexed] (partner 0.2 µM) ?
A: 0.247
